B1: CPEB3 Ribozyme (parent)
chain: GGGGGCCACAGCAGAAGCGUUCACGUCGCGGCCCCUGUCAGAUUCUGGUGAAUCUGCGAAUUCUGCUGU

variants of: B1; test: self-cleavage, relative activity (ratio to wild type); higher = more cleavage; co-transcriptional
Kind request: treat 0.2 as inclusive, so self-cleavage at 0.2 or higher is Criterion met, anything lower is Criterion not met.

U36A C39U: Criterion met
C33U U55C: Criterion met
C27U G37A: Criterion not met
A16G C35G: Criterion met
U20G C33U: Criterion not met
A16U C22G: Criterion not met
A13C G25A: Criterion not met
A8G C27G: Criterion not met
C39U G48C: Criterion met
G1U C57A: Criterion not met
G3A C7A: Criterion not met
C29A U44C: Criterion met
G47U G65A: Criterion met
G1A U49C: Criterion not met
